system: L1210 leukemia ip in BDF1 mice, survival T/C; test: NCI In Vivo Anticancer Drug Screen. Data for tumor model L1210 Leukemia (intraperitoneal) in B6D2F1 (BDF1) mice; conditions: endpoint: mean survival time; dose: 400.0 mg/kg/injection; schedule: Q04DX002 (ip); vehicle: gum acacia; higher = longer survival
Toxic doses and inconclusive results are not listed.
OBSERVABLE: T/C

Cc1ccc(S(=O)(=O)F)cc1C(=O)O : 107 % of control

Field: T/C. Fill in for each record below.
1. COc1cc(C=Nc2ccccc2)ccc1OC(=O)c1ccccc1
2. CC(C(=O)Nc1ccc(Cl)c(Cl)c1)C(=O)Nc1ccc(Cl)c(Cl)c1
3. CC(C)c1ccc(/C=C2\C=Nc3ccccc32)cc1

Result:
1: 88 % of control; 2: 99 % of control; 3: 95 % of control

Query: State its T/C for this compound: COC(=O)Nc1ccccc1
Result: 103 % of control
